For each entry below, report its inhibition value.
TARGET_UNDER_TEST: Methionine--tRNA ligase, mitochondrial (Homo sapiens)
TEST_DETAILS: human mitochondrial MetRS inhibitors, late-stage follow-up, counter-screen for T. brucei MetRS inhibitor project, biochemical, radioactivity, [3H]methionine, two concentrations (AID 720620)
EXPERIMENTAL_CONDITIONS: recombinant human mitochondrial MetRS, [3H]Met-tRNA charging, 60 min; at 10 µM; stronger effect = higher value
Give bare numbers, in %.

[[record]]
smiles_input = "O=C(NCc1nc2ccccc2[nH]1)C1=C[C@@H](c2csc3ccccc23)C[C@@H](OCCCCO)O1"
readout_kind = "inhibition"
recorded_value = 6.67

[[record]]
smiles_input = "CC(=O)c1ccc(N2CCN(C(=O)CCCn3c(=O)[nH]c4ccc(Br)cc4c3=O)CC2)cc1"
readout_kind = "inhibition"
recorded_value = 7.87


Please state inhibition for every compound in the list that follows.
1. CC(CC(=O)Nc1cccc(Br)c1)=NNC(=O)c1ccc(O)cc1O
2. O=C(NCc1nc2ccccc2[nH]1)C1=C[C@H](c2ccccc2)C[C@H](OCc2ccc(CO)cc2)O1
3. O=C(Cn1cnc2ccccc21)Nc1cccc([N+](=O)[O-])c1

Return:
4.55
12.7
-2.2

====

TARGET_UNDER_TEST: Methionine--tRNA ligase, mitochondrial (Homo sapiens) (UniProt Q96GW9)
Sequence (Q96GW9 whole entry, looked up): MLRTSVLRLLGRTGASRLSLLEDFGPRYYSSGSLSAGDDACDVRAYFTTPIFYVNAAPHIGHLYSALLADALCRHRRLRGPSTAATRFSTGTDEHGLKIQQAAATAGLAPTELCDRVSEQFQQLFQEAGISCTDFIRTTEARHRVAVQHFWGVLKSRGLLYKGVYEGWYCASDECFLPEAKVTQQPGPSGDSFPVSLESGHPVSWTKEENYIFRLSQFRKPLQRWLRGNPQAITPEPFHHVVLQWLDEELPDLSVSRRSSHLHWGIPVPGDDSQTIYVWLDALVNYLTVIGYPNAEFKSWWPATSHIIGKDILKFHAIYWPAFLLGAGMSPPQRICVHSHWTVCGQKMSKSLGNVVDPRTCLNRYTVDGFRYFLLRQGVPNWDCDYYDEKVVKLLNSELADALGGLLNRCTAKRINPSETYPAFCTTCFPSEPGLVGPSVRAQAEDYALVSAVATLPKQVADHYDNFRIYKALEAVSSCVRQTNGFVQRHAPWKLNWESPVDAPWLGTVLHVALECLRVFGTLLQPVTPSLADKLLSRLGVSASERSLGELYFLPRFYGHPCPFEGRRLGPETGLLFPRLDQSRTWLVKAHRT
TEST_DETAILS: human mitochondrial MetRS inhibitors, late-stage follow-up, counter-screen for T. brucei MetRS inhibitor project, biochemical, radioactivity, [3H]methionine, two concentrations (AID 720620)
EXPERIMENTAL_CONDITIONS: recombinant human mitochondrial MetRS, [3H]Met-tRNA charging, 60 min; at 10 µM; stronger effect = higher value
Calls of active or inactive are those of the source.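 The calls were made as follows: active = at least 50% inhibition of the human mitochondrial methionine-charging enzyme at 10 µM; inactive = under 50% inhibition at 10 µM.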
READOUT_KIND: inhibition

Worked cases, answers included:
[[record]]
compound = "CCO[C@@H]1OC(C(=O)NCc2nc3ccccc3[nH]2)=C[C@H](c2ccc(Br)cc2)[C@H]1CCCO"
target_under_test = "Methionine--tRNA ligase, mitochondrial (Homo sapiens) (UniProt Q96GW9)"
readout_kind = "inhibition"
recorded_value = "-6.53% (inactive)"

[[record]]
compound = "O=C(C[C@H]1C(=O)N(Cc2ccccc2)C[C@@H]1c1ccc(Br)cc1)Nc1ccc(Br)cc1"
target_under_test = "Methionine--tRNA ligase, mitochondrial (Homo sapiens) (UniProt Q96GW9)"
readout_kind = "inhibition"
recorded_value = "-8.54% (inactive)"

[[record]]
compound = "CN1CC(=O)N2C(c3cccc([N+](=O)[O-])c3)c3[nH]c4ccccc4c3C[C@H]2C1=O (some centres undefined)"
target_under_test = "Methionine--tRNA ligase, mitochondrial (Homo sapiens) (UniProt Q96GW9)"
readout_kind = "inhibition"
recorded_value = "14% (inactive)"


Please state inhibition for every compound in the list that follows.
1. O=C(NCc1nc2ccccc2[nH]1)C1=C[C@@H](c2ccc(Br)cc2)C[C@@H](OCCCCO)O1
2. O=C(NCc1nc2ccccc2[nH]1)C1=C[C@@H](c2ccc(Br)cc2)C[C@@H](OCc2ccc(CO)cc2)O1

Return:
["29% (inactive)", "16.7% (inactive)"]

====

For each entry below, report its inhibition value.
TARGET_UNDER_TEST: Methionine--tRNA ligase, mitochondrial (Homo sapiens) (UniProt Q96GW9)
TEST_DETAILS: human mitochondrial MetRS inhibitors, late-stage follow-up, counter-screen for T. brucei MetRS inhibitor project, biochemical, radioactivity, [3H]methionine, two concentrations (AID 720620)
EXPERIMENTAL_CONDITIONS: recombinant human mitochondrial MetRS, [3H]Met-tRNA charging, 60 min; inhibition; at 1 µM; stronger effect = higher value
Give bare numbers, in %.

Worked cases, answers included:
[[record]]
smiles_input = "CCO[C@@H]1OC(C(=O)NCc2nc3ccccc3[nH]2)=C[C@H](c2ccc(Br)cc2)[C@H]1CCCO"
target_under_test = "Methionine--tRNA ligase, mitochondrial (Homo sapiens) (UniProt Q96GW9)"
readout_kind = "inhibition"
recorded_value = -4.89

[[record]]
smiles_input = "O=C(NNC(=O)c1ccc(-n2cncn2)c([N+](=O)[O-])c1)c1ccc(Cl)cc1"
target_under_test = "Methionine--tRNA ligase, mitochondrial (Homo sapiens) (UniProt Q96GW9)"
readout_kind = "inhibition"
recorded_value = -30.3

[[record]]
smiles_input = "CCOC(=O)N1CCC(Nc2c(Nc3ccc(F)cc3)c(=O)c2=O)CC1"
target_under_test = "Methionine--tRNA ligase, mitochondrial (Homo sapiens) (UniProt Q96GW9)"
readout_kind = "inhibition"
recorded_value = -8.53

[[record]]
smiles_input = "CC(=O)c1c[nH]c(C(=O)NCc2cccc(C(F)(F)F)c2)c1"
target_under_test = "Methionine--tRNA ligase, mitochondrial (Homo sapiens) (UniProt Q96GW9)"
readout_kind = "inhibition"
recorded_value = -7.99


Now for a further compound.
Enquiry: // fetch inhibition for COc1ccc2[nH]c3nc(SCC(=O)Nc4ccc5c(c4)OCO5)nnc3c2c1 ; system: Methionine--tRNA ligase, mitochondrial (Homo sapiens) (UniProt Q96GW9)
Return: 14.3
